- assay system: purified αllbβ3 receptor (Homo sapiens, UniProt P05106+P08514)
- Sequence (P08514 32-887 limits assumed): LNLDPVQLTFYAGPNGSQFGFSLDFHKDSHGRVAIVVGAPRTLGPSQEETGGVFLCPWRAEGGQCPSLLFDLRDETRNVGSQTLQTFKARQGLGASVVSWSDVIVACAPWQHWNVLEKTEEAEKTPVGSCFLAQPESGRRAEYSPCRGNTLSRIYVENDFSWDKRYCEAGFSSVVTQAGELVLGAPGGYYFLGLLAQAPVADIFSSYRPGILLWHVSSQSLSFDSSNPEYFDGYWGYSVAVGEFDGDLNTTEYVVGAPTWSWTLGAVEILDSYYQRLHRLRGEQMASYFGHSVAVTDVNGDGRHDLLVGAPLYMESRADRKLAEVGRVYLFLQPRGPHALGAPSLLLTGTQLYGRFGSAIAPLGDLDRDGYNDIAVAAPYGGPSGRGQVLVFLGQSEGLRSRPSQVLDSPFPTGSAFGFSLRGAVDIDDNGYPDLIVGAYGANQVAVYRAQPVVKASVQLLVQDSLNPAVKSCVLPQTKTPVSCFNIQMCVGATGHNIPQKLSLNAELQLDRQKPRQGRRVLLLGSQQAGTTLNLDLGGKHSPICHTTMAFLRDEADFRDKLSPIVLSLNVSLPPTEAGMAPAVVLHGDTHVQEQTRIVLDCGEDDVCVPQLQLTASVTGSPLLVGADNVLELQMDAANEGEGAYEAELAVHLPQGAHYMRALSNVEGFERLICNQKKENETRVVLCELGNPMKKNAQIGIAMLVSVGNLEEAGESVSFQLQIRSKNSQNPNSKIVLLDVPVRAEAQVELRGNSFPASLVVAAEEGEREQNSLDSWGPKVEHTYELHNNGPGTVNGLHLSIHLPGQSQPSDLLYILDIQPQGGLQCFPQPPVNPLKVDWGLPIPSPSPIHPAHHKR
- Sequence (P08514 891-1039 partner limits assumed): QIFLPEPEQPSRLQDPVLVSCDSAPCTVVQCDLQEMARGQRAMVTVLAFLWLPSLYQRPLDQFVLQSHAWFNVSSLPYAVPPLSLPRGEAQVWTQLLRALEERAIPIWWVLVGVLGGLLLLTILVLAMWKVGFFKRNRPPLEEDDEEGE
- Sequence (P05106 27-788): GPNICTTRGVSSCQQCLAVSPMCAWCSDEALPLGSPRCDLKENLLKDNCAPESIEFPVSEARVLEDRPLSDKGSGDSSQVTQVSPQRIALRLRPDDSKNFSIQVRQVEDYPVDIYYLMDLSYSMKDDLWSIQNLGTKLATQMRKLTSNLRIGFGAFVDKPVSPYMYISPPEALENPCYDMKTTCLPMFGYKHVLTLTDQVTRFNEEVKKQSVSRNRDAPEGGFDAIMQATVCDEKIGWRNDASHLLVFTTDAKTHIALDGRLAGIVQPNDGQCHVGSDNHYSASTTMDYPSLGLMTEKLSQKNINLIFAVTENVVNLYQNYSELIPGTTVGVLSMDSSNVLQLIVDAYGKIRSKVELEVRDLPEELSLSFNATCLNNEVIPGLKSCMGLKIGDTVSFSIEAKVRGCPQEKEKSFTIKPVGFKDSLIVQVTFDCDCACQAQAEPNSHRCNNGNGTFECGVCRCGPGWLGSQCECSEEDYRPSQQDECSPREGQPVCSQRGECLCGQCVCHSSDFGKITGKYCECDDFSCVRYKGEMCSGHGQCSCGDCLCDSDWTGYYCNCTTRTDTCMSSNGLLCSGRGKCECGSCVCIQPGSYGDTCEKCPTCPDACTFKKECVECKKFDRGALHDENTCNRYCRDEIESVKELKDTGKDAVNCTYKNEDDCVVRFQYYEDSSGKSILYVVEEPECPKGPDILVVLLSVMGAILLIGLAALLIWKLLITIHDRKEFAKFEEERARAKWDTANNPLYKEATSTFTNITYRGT
- experiment description: similar competitive binding assay with 125I-echistatin on αllbβ3 receptor, used for the specificity index
- assay setup: Table 10; specificity index IC50 αllbβ3/ IC50 αvβ3
Could you mark each record Fulfilled if its SPECIFICITY αIIbβ3 / αvβ3 falls strictly under 600, and Not fulfilled if it equals or exceeds it?

Data request: Please let me know if COc1ccc(NC(=S)N(Cc2ccc(C(=O)NC[C@H](NC(=O)OCc3ccccc3)C(=O)O)cc2)Cc2nc3ccccc3[nH]2)cc1 shows SPECIFICITY αIIbβ3 / αvβ3 below 600.
Data returned: Not fulfilled

Data request: Please let me know if CCOC(=O)[C@H](CC(C)C)NC(=O)N(Cc1ccc(C(=O)NC[C@H](NC(=O)OCc2ccccc2)C(=O)O)cc1)Cc1nc2ccccc2[nH]1 shows SPECIFICITY αIIbβ3 / αvβ3 below 600.
Data returned: Fulfilled

Data request: Please let me know if CN(C)CC(=O)N(Cc1ccc(C(=O)NC[C@H](NC(=O)OCc2ccccc2)C(=O)O)cc1)Cc1nc2ccccc2[nH]1 shows SPECIFICITY αIIbβ3 / αvβ3 below 600.
Data returned: Fulfilled

Data request: Please let me know if CCOC(=O)CCC(=O)N(Cc1ccc(C(=O)NC[C@H](NC(=O)OCc2ccccc2)C(=O)O)cc1)Cc1nc2ccccc2[nH]1 shows SPECIFICITY αIIbβ3 / αvβ3 below 600.
Data returned: Fulfilled

Data request: Please let me know if O=C(N[C@@H](CNC(=O)c1ccc(CN(Cc2nc3ccccc3[nH]2)C(=O)C2CCCCC2)cc1)C(=O)O)OCc1ccccc1 shows SPECIFICITY αIIbβ3 / αvβ3 below 600.
Data returned: Fulfilled

Data request: Please let me know if COCCNC(=S)N(Cc1ccc(C(=O)NC[C@H](NC(=O)OCc2ccccc2)C(=O)O)cc1)Cc1nc2ccccc2[nH]1 shows SPECIFICITY αIIbβ3 / αvβ3 below 600.
Data returned: Fulfilled

Data request: Please let me know if O=C(N[C@@H](CNC(=O)c1ccc(CN(Cc2nc3ccccc3[nH]2)C(=O)Nc2ccc(-c3ccccc3)cc2)cc1)C(=O)O)OCc1ccccc1 shows SPECIFICITY αIIbβ3 / αvβ3 below 600.
Data returned: Fulfilled

Data request: Please let me know if CCOC(=O)[C@H](C)NC(=O)N(Cc1ccc(C(=O)NC[C@H](NC(=O)OCc2ccccc2)C(=O)O)cc1)Cc1nc2ccccc2[nH]1 shows SPECIFICITY αIIbβ3 / αvβ3 below 600.
Data returned: Not fulfilled

Data request: Please let me know if O=C(N[C@@H](CNC(=O)c1ccc(CN(Cc2nc3ccccc3[nH]2)C(=O)CCc2ccccc2)cc1)C(=O)O)OCc1ccccc1 shows SPECIFICITY αIIbβ3 / αvβ3 below 600.
Data returned: Not fulfilled

Data request: Please let me know if COCCC(=O)N(Cc1ccc(C(=O)NC[C@H](NC(=O)OCc2ccccc2)C(=O)O)cc1)Cc1nc2ccccc2[nH]1 shows SPECIFICITY αIIbβ3 / αvβ3 below 600.
Data returned: Fulfilled

Data request: Please let me know if O=C(N[C@@H](CNC(=O)c1ccc(CN(Cc2nc3ccccc3[nH]2)C(=S)NC2CCCCC2)cc1)C(=O)O)OCc1ccccc1 shows SPECIFICITY αIIbβ3 / αvβ3 below 600.
Data returned: Not fulfilled

Data request: Please let me know if CN(Cc1ccc(C(=O)NC[C@H](NC(=O)OCc2ccccc2)C(=O)O)cc1)Cc1nc2ccccc2[nH]1 shows SPECIFICITY αIIbβ3 / αvβ3 below 600.
Data returned: Fulfilled
